Recorded values, source PubChem BioAssay.

experiment: inhibitors of poly I:C-induced TLR3 signaling, primary screen, cell-based, poly I:C stimulus, luciferase, 10K MLSCN set (AID 602277); conditions: HEK293-TLR3 RL24 IRF3 luciferase reporter, at 10 µM, hits give high values
Overview of recorded inhibition for various compounds
measuredQuantity: inhibition (%)

>>> reportedvalue("O=C(O)c1ccc2c(c1)N(Cc1ccccc1F)C(=O)c1ccccc1S2=O (stereo not drawn)")
7.14
>>> reportedvalue("COC(=O)c1[nH]c(C)c(/C(O)=C2\\C(=O)C(=O)N(CCN3CCOCC3)C2c2cccs2)c1C (stereo not drawn)")
11.2
>>> reportedvalue("Cc1ccc(NC2=NCC(=O)N2c2ccc3c(c2)OCCO3)c(C)c1")
7.01
